molecular target: T1, apical domain of human CD71 (human, UniProt P02786 189-383, limits assumed); assay: primary ELISA screen, Screen 4, luminescence; further: test concentration or dose not given here
T1 construct: domain: apical domain; Screen 4 panned against human apical domains; also called human apical domain
T1 sequence (P02786 189-383 limits assumed): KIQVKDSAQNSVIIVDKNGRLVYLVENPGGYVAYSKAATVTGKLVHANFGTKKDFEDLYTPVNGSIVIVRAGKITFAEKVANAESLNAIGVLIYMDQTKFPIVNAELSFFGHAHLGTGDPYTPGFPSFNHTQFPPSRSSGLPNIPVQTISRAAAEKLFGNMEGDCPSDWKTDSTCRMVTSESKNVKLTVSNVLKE
OBSERVATION_TYPE: Apical domain, RLU (RLU)

Recorded Apical domain, RLU, per entry:
BINDER | MEASURED_VALUE
CD71-binding FN3 domain of SEQ ID NO: 547 (designed binder) MLPAPKNLVVSRVTEDSARLSWTAPDAAFDSFFIGYLEPQPPGEAIHLIVPGSERSYDLTGLKPGTEYNVTIQGVKGGFPSDPLVASFTT | 5.35e+06
CD71-binding FN3 domain of SEQ ID NO: 552 (designed binder) MLPAPKNLVVSRVTEDSARLSWTAPDAAFDSFFIGYLEPQPPGEAIHLFVPGSERSYDLTGLKPGTEYNVTIQGVKGGFPSMPLSAIFTT | 5.7e+06
CD71-binding FN3 domain of SEQ ID NO: 551 (designed binder) MLPAPKNLVVSRVTEDSARLSWTAPDAAFDSFEIAYFETCRTGEAIVLTVPGSERSYDLTGLKPGTEYWVQIGGVKGGNWSAPLSAIFTT | 4.07e+06
CD71-binding FN3 domain of SEQ ID NO: 550 (designed binder) MLPAPKNLVVSRVTEDSARLSWTAPDAAFDSFFIGYLEPQPPGEAIHLFVPGSERSYDLTGLKPGTEYNVTIQGVKGGFPSIPLYARFTT | 5.8e+06
CD71-binding FN3 domain of SEQ ID NO: 546 (designed binder) MLPAPKNLVVSRVTEDSARLSWTAPDAAFDSFEIAYIEVNIQGEAIVLTVPGSERSYDLTGLKPGTEYYVHIGGVKGGPSSSPLSAIFTT | 4.4e+06

[1] CD71-binding FN3 domain of SEQ ID NO: 548 (designed binder) MLPAPKNLVVSRVTEDSARLSWTAPDAAFDSFFIGYLEPQPPGEAIYLFVPGSERSYDLTGLKPGTEYNVTIQGVKGGFPSMPLSAIFTT
[2] CD71-binding FN3 domain of SEQ ID NO: 549 (designed binder) MLPAPKNLVVSRVTEDSARLSWTAPDAAFDSFFIGYLEPQPPGEAISLWVPGSERSYDLTGLKPGTEYNVTIQGVKGGFPSMPLSAIFTT
input: Of 1 and 2 , whose reported Apical domain, RLU is numerically smaller? Pick one and reply with its label.
output: 2

Reference source for all entries: patent US20260151494A1
